- measured-target: IDO1 (Homo sapiens, UniProt P14902)
- Construct: a human cervical cancer cell line HeLa that endogenously expresses IDO1 upon IFN-γ treatment; endogenous in cells; host or cells: HeLa cells treated with human IFN-γ
- Sequence (P14902 whole entry): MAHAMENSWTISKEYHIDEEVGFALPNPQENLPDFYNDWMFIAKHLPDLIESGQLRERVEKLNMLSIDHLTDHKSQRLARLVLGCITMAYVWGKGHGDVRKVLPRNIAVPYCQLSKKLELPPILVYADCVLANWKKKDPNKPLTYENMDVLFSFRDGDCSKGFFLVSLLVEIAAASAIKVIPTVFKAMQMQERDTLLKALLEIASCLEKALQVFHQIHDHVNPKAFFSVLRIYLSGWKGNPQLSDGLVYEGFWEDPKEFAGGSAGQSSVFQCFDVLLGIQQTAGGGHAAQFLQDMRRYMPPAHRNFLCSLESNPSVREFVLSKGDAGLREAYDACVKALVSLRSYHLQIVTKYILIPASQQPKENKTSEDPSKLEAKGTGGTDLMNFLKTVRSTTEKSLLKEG
- assay-protocol: HeLa cell-based IDO1/kynurenine assay
- condition-label: percentage inhibition at 30 μM; IFN-γ-treated HeLa cells, kynurenine in media
measurement-kind: inhibition at 30 µM (%)

Sample records with inhibition at 30 µM:
CC(=O)Nc1ccc(S(=O)(=O)Nc2ccccc2)cc1 [3a, N-(4-(N-Phenylsulfamoyl)phenyl)acetamide]; 3.9
CC(=O)Nc1ccc(S(=O)(=O)NCc2ccc(C(F)(F)F)cc2)cc1; 14.5
C=CC(=O)Nc1ccc(S(=O)(=O)NCc2ccc(Cl)cc2)cc1; 40.4

A = Cc1ccc(NS(=O)(=O)c2ccc(N)cc2)cc1 [4b, 4-Amino-N-(p-tolyl)benzenesulfonamide]
B = C=CC(=O)Nc1ccc(S(=O)(=O)NCc2ccc(C(F)(F)F)cc2)cc1
C = C=CC(=O)Nc1ccc(S(=O)(=O)Nc2ccc(OC)cc2)cc1
D = C=CC(=O)Nc1ccc(S(=O)(=O)Nc2cccc(F)c2)cc1
Ask: Sort ascending by inhibition at 30 µM. Please reply with the labels ordered as requested. Many thanks.
Result: A, C, B, D
(A: 10.8%, C: 20.9%, B: 38.2%, D: 69.7%)

1 = C=CC(=O)Nc1ccc(S(=O)(=O)NCc2ccc(OC)cc2)cc1
2 = Nc1ccc(S(=O)(=O)Nc2ccccc2)cc1 [4a, 4-Amino-N-phenylbenzenesulfonamide]
Ask: Name the one with the greater inhibition at 30 µM value, either 1 or 2 as given. Please respond with the label that marks your chosen entry.
Result: 1
(1: 36%, 2: 12%)

====

measurement-kind: melting point

Sample records with melting point:
C=CC(=O)Nc1ccc(S(=O)(=O)NCc2ccc(Cl)c(Cl)c2)cc1; 148 to 150 °C
CC(=O)Nc1ccc(S(=O)(=O)NCc2ccc(C(F)(F)F)cc2)cc1; 186 to 188 °C
C=CC(=O)Nc1ccc(S(=O)(=O)NCc2ccccc2)cc1; 116 to 118 °C

Would you kindly look at the next entry?
Ask: What measured melting point goes with Nc1ccc(S(=O)(=O)NCc2cccc(Cl)c2)cc1 ?
Result: 119 to 121 °C

====

- measured-target: IDO1 (Homo sapiens, UniProt P14902)
- Construct: a human cervical cancer cell line HeLa that endogenously expresses IDO1 upon IFN-γ treatment; endogenous in cells; host or cells: HeLa cells treated with human IFN-γ
- assay-protocol: HeLa cell-based IDO1/kynurenine assay
- condition-label: percentage inhibition at 30 μM; IFN-γ-treated HeLa cells, kynurenine in media
measurement-kind: inhibition at 30 µM (%)

CC(=O)Nc1ccc(S(=O)(=O)NCc2cccc(C(F)(F)F)c2)cc1 [3h]; 7.8

a = CC(=O)Nc1ccc(S(=O)(=O)Nc2ccc(C)cc2)cc1 [3b]
b = C=CC(=O)Nc1ccc(S(=O)(=O)NCc2ccccc2Cl)cc1 [5j]
Ask: # compare inhibition at 30 µM for a vs b ; return the one with the smaller value Please respond with the label that marks your chosen entry.
Result: a

a = CC(=O)Nc1ccc(S(=O)(=O)Nc2cccc(C(C)C)c2)cc1 [3d]
b = C=CC(=O)Nc1ccc(S(=O)(=O)Nc2onc(C)c2C)cc1 [8i]
c = C=CC(=O)Nc1ccc(S(=O)(=O)NCc2ccccc2)cc1 [5a]
d = Nc1ccc(S(=O)(=O)NCc2ccccc2)cc1 [4c, 4-Amino-N-benzylbenzenesulfonamide]
Ask: Sort ascending by inhibition at 30 µM. Please reply with the labels ordered as requested. Many thanks.
Result: d, a, b, c
(d: 7.4%, a: 14.6%, b: 23.6%, c: 62.5%)
